// reported IC50 for each item listed
- measured on: human IsK protein (UniProt P15382+P70057)
- Construct: expressed in transfected cells; host or cells: Xenopus laevis oocytes injected with in vitro synthesized IsK RNA
- Sequence (P70057 whole entry): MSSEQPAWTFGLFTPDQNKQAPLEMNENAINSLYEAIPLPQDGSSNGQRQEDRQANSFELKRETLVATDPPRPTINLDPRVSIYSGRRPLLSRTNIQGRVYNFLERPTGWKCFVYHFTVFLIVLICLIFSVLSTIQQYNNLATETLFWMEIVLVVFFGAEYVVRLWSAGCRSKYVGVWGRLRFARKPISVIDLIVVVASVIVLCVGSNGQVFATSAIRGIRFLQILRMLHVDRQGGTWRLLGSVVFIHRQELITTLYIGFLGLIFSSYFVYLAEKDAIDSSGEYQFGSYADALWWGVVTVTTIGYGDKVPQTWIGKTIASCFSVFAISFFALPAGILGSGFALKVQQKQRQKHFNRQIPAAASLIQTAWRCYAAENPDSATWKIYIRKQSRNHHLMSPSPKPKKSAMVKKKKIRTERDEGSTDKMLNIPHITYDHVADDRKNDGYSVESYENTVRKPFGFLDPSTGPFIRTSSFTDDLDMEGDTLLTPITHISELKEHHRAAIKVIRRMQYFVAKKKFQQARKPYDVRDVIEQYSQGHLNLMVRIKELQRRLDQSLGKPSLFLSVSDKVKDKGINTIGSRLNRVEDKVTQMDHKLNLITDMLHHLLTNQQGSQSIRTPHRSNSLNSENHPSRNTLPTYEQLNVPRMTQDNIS
- experiment: Inhibition of IsK current in Xenopus oocytes expressing human IsK (two microelectrode voltage clamp)
- Format: cell-based
- condition: human IsK expressed in Xenopus oocytes; voltage jumps to -10 mV lasting 15 s; pH 7.5; room temperature; extrapolated using the Hill equation; read-out: IC-50 (inhibition of IsK control current)

CCS(=O)(=O)N(C)C1CC(C)(C)c2ccccc21 (stereo not shown); ~15 µM
CCCCCCN(C1CC(C)(C)c2ccccc21)S(C)(=O)=O (stereo not shown); < 10 µM
CCCCN(C1CS(=O)(=O)c2ccccc21)S(C)(=O)=O (stereo not shown); > 10 µM

Shifting focus to the compound that follows.
Q: I would be grateful if you could share the reported IC50 for CC1(C)CC(N(Cc2ccncc2)S(C)(=O)=O)c2cc([N+](=O)[O-])ccc21 (stereo not shown) .
Ans: ~2 µM
